Data credit: patent US20240327417A1

TEST SYSTEM: Full length DGKζ (in-house protein M1-V929) (Homo sapiens)
Construct: His (N); TEV cleavage site (N)
TEST DESCRIPTION: Biochemical DGK IC50 assay (ADP-Glo, lipid micelle substrate), DGKζ
EXPERIMENTAL CONDITIONS: 0.5 nM enzyme, 140 μM ATP, 80 μM DAG, 1 hour preincubation, 1 hour reaction, room temperature, read-out: IC50s for DGKζ
READOUT: IC50 (nM)

INSERT INTO measurements (compound, test_system, unit_annotation, numeric_value) VALUES
  ('CC[C@H]1CN(C(C)c2ccc3ncsc3n2)[C@H](CC)CN1c1c(F)c(=O)n(C)n2cc(CC#N)nc12 (single isomer, unassigned) [Compound A81b]', 'Full length DGKζ (in-house protein M1-V929) (Homo sapiens)', 'nM', 32);

[P] CC[C@H]1CN(C(C)c2ccc(C3CC3(F)F)nc2)[C@H](CC)CN1c1cc(=O)n(C)n2cc(CC#N)nc12 (single isomer, unassigned) [Compound A70b]
[Q] CC[C@H]1CN(C(C)c2ccc3ncsc3n2)[C@H](CC)CN1c1cc(=O)n(C)n2cc(CC#N)nc12 (single isomer, unassigned) [Compound A57b]
Pick the one with the larger IC50: P vs Q Response format: the label of the selected entry. P
(P: 886 nM, Q: 357 nM)

----------
TEST SYSTEM: Full length DGKα (D21-10BG, SignalChem) (Homo sapiens, UniProt P23743)
Sequence (P23743 whole entry): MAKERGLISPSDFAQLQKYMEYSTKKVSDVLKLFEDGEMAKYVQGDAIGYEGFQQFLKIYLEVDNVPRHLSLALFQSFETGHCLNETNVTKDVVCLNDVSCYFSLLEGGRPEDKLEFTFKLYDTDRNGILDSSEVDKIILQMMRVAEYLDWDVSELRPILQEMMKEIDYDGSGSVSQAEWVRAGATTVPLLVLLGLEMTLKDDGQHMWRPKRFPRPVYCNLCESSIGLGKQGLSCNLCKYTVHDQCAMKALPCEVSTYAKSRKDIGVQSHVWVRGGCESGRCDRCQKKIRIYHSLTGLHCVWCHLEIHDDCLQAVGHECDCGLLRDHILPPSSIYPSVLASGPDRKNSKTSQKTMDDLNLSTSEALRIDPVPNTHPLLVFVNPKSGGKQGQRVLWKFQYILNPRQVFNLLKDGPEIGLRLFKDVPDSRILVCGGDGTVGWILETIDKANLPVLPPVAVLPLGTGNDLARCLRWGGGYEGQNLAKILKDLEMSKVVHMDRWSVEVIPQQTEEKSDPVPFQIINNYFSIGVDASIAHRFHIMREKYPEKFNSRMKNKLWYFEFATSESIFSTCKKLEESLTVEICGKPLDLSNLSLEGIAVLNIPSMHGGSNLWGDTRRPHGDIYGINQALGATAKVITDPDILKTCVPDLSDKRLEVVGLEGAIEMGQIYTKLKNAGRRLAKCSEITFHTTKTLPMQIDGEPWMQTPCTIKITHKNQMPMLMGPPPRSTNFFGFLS
pIC50: −log10 of the molar value.
READOUT: pIC50

// below: answered molecules
INSERT INTO results (molecule, test_system, readout, numeric_value) VALUES
  ('CC[C@@H]1CN(c2cc(=O)n(C)n3cc(CC#N)nc23)[C@@H](COC)CN1C(C)c1ccc2nc(C)sc2n1 (single isomer, unassigned) [Compound A108b]', 'Full length DGKα (D21-10BG, SignalChem) (Homo sapiens, UniProt P23743)', 'pIC50', 6.29),
  ('CC(c1ccc2c(c1)OC(C)(C)CO2)N1C[C@H](C)N(c2c(F)c(=O)n(C)n3cc(CC#N)nc23)C[C@H]1C (single isomer, unassigned) [Compound A26b]', 'Full length DGKα (D21-10BG, SignalChem) (Homo sapiens, UniProt P23743)', 'pIC50', 5.68),
  ('CC[C@@H]1CN(c2cc(=O)n(C)n3cc(CC#N)nc23)[C@@H](COC)CN1C(C)c1ccc2nc(C)sc2n1 (single isomer, unassigned) [Compound A108a]', 'Full length DGKα (D21-10BG, SignalChem) (Homo sapiens, UniProt P23743)', 'pIC50', 5.19);

[P] CC[C@H]1CN(C(C)c2ccc(OC(C)C)nc2)[C@H](CC)CN1c1cc(=O)n(C)n2cc(CC#N)nc12 (single isomer, unassigned) [Compound A45a]
[Q] CC[C@H]1CN(C(C)c2ccc3nc(C)sc3n2)[C@H](CC)CN1c1cc(=O)n(C)n2cc(CC#N)nc12 (single isomer, unassigned) [Compound A58b]
Could you determine which record has the numerically smaller pIC50? Candidates: P and Q Response format: the label of the selected entry. P
(P: 6.03, Q: 7.88)

----------
TEST SYSTEM: Full length DGKα (D21-10BG, SignalChem) (Homo sapiens)
READOUT: IC50 (nM)

INSERT INTO measurements (compound, numeric_value) VALUES
  ('CC[C@H]1CN(C(C)c2ccc(C(F)(F)F)cc2F)[C@H](CC)CN1c1cc(=O)n(C)n2cc(CC#N)nc12 (single isomer, unassigned) [Compound A92b]', 803);

[P] [2H]C([2H])([2H])c1nc2ccc(C(C)N3C[C@H](CC)N(c4cc(=O)n(C)n5cc(CC#N)nc45)C[C@H]3CC)cc2s1 (single isomer, unassigned) [Compound A96b]
[Q] CCC(c1ccc(C2CC2)nc1)N1C[C@H](CC)N(c2cc(=O)n(C)n3cc(CC#N)nc23)C[C@H]1CC (single isomer, unassigned) [Compound A89a]
Pick the one with the larger IC50: P vs Q Response format: the label of the selected entry. P
(P: 2080 nM, Q: 171 nM)

----------
TEST SYSTEM: Full length DGKζ (in-house protein M1-V929) (Homo sapiens, UniProt Q13574)
Construct: His (N); TEV cleavage site (N)
Sequence (Q13574 1-929 isoform Q13574-4): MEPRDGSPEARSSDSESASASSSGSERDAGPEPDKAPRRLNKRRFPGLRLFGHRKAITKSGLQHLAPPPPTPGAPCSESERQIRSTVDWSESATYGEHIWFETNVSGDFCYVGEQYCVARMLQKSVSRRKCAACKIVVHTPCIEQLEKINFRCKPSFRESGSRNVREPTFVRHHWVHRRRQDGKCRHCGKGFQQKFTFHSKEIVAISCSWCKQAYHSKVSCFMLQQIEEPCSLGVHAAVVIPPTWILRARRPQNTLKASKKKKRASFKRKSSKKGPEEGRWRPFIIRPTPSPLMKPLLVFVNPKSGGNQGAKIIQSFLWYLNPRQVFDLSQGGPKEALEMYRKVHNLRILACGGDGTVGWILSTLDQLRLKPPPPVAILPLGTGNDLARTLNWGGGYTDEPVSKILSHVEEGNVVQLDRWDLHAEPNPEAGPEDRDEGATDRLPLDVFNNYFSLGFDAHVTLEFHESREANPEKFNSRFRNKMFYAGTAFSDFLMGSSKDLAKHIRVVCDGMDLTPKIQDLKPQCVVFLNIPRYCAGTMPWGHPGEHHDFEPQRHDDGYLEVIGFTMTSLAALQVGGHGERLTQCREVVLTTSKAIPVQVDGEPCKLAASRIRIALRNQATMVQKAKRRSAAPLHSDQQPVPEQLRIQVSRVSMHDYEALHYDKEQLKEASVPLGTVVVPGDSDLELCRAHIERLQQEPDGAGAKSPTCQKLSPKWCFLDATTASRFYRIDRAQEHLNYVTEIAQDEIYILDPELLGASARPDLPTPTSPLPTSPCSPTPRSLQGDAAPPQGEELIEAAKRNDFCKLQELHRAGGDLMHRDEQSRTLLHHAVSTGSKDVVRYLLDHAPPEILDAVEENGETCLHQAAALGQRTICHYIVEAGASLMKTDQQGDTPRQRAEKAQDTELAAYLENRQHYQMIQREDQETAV
TEST DESCRIPTION: Biochemical DGK IC50 assay (ADP-Glo, lipid micelle substrate), DGKζ
EXPERIMENTAL CONDITIONS: 0.5 nM enzyme, 140 μM ATP, 80 μM DAG, 1 hour preincubation, 1 hour reaction, room temperature, read-out: IC50s for DGKζ
pIC50: −log10 of the molar value.
READOUT: pIC50

[1] [2H]C([2H])([2H])n1c(=O)cc(N2C[C@@H](CC)N(C(C)c3ccc4nc(C)sc4c3)C[C@@H]2CC)c2nc(CC#N)cn21 (single isomer, unassigned) [Compound A94a]
[2] CC[C@@H]1CN(c2cc(=O)n(C)n3cc(CC#N)nc23)[C@@H](C)CN1C(C)c1ccc2nc(C)sc2c1F (single isomer, unassigned) [Compound A63b]
[3] CC#CCc1cn2c(n1)c(N1C[C@@H](CC)N(C(C)c3ccc4nc(C)sc4n3)C[C@@H]1CC)cc(=O)n2C (single isomer, unassigned) [Compound A115b]
[4] CC[C@@H]1CN(c2cc(=O)n(C)n3cc(CC#N)nc23)[C@@H](C)CN1C(C)c1ccc2cc(F)sc2n1 (stereo partly shown) [Compound A106]
Put the above compounds in order of rising pIC50, beginning with the smallest. Submit the labels in the order that the ranking request calls for. 2, 4, 3, 1
(2: 5.75, 4: 7.02, 3: 7.31, 1: 7.62)

[P] CCc1nc2ccc(C(C)N3C[C@H](C)N(c4cc(=O)n(C)n5cc(CC#N)nc45)C[C@H]3CC)cc2s1 (single isomer, unassigned) [Compound A101a]
[Q] CC(c1ccc2c(c1)OC(C)(C)CO2)N1C[C@H](C)N(c2c(F)c(=O)n(C)n3cc(CC#N)nc23)C[C@H]1C (single isomer, unassigned) [Compound A26b]
Could you determine which record has the numerically smaller pIC50? Candidates: P and Q Response format: the label of the selected entry. Q
(Q: 5.67, P: 7.54)

[P] CC(c1ccc2ncc(Cl)nc2c1)N1C[C@H](C)N(c2cc(=O)n(C)n3cc(CC#N)nc23)C[C@H]1C (stereo partly shown) [Compound A21]
[Q] CC[C@H]1CN(C(CCOC)c2ccc3nc(C)sc3c2)[C@H](CC)CN1c1cc(=O)n(C)n2cc(CC#N)nc12 (single isomer, unassigned) [Compound A102a]
Pick the one with the larger pIC50: P vs Q Response format: the label of the selected entry. P

[1] CC[C@H]1CN(C(C)c2ccc(C(C)C)nc2)[C@H](CC)CN1c1cc(=O)n(C)n2cc(CC#N)nc12 (single isomer, unassigned) [Compound A38a]
[2] CC[C@H]1CN(C(C)c2ccc3nc(C)sc3n2)[C@H](CC)CN1c1c(C#N)c(=O)n(C)n2cc(CC#N)nc12 (single isomer, unassigned) [Compound A112b]
Could you determine which record has the numerically smaller pIC50? Candidates: 1 and 2 Response format: the label of the selected entry. 2

[P] CC[C@H]1CN(C(C)c2ccc(C(C)C)nc2)[C@H](CC)CN1c1cc(=O)n(C)n2cc(CC#N)nc12 (single isomer, unassigned) [Compound A38b]
[Q] [2H]C([2H])([2H])c1nc2ccc(C(C)N3C[C@H](CC)N(c4cc(=O)n(C([2H])([2H])[2H])n5cc(CC#N)nc45)C[C@H]3CC)cc2s1 (single isomer, unassigned) [Compound A97b]
Pick the one with the larger pIC50: P vs Q Response format: the label of the selected entry. P
(P: 6.32, Q: 5.94)

[1] CC[C@@H]1CN(c2cc(=O)n(C)n3cc(CC#N)nc23)[C@@H](C)CN1C(C)c1ccc2ncsc2n1 (single isomer, unassigned) [Compound A80b]
[2] CC[C@H]1CN(C(C)c2ccc3ncsc3n2)[C@H](CC)CN1c1cc(=O)n(C)n2cc(CC#N)nc12 (single isomer, unassigned) [Compound A57a]
[3] CC[C@@H]1CN(c2cc(=O)n(C)n3cc(CC#N)nc23)[C@@H](C)CN1C(C)c1cc2sc(C)nc2cc1F (single isomer, unassigned) [Compound A60a]
[4] CC[C@H]1CN(C(C)c2ccc(C(F)(F)F)cc2)[C@H](CC)CN1c1cc(=O)n(C)n2cc(CC#N)nc12 (single isomer, unassigned) [Compound A91a]
[5] CC[C@H]1CN(C(C)c2ccc3nc(C)sc3n2)[C@H](CC)CN1c1cc(=O)n(C)n2cc(C=NOC)nc12 (single isomer, unassigned) [Compound A124d]
Order the records so the highest pIC50 appears first and the lowest last. Submit the labels in the order that the ranking request calls for. 2, 4, 3, 5, 1

[I] CCC(c1ccc2nc(C)sc2n1)N1C[C@H](CC)N(c2cc(=O)n(C)n3cc(CC#N)nc23)C[C@H]1C (single isomer, unassigned) [Compound A98a]
[II] CC(c1ccc2c(c1)OC(C)(C)CO2)N1C[C@H](C)N(c2c(C#N)c(=O)n(C)n3cc(CC#N)nc23)C[C@H]1C (mixture of isomers) [Compound A27]
[III] CC[C@H]1CN(C(C)c2ccc3nc(C)sc3c2)[C@H](CC)CN1c1cc(=O)n(C)n2cc(C=NOC)nc12 (single isomer, unassigned) [Compound A123a]
Hey, can you sort those compounds up there by pIC50, smallest first? Submit the labels in the order that the ranking request calls for. III, I, II
